For each of the compounds below, state its z-score.
Protocol Description: E. coli acrAB mutant growth effects, primary screen, E. coli filamentation inducers, strain DRC39, OD650, 48 h (AID 1179);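 also: screen aims at cell division blockers that make cells filament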
Test Context: E. coli DRC39 delta-acrAB growth, higher = more signal, called active from +8 up or from −8 down
One number for each entry.

{"Compound": "COC(=O)[C@H](C)NC(=O)CCC1CC(OC(=O)NCCc2ccc(F)cc2)CC2(CCCC(COC(=O)NCc3ccccc3)O2)O1 (some centres not stated)", "Test Value": -0.445}
{"Compound": "CON=C(C)CCN1CCCCc2nc(C)c(C)cc21", "Test Value": -0.78}
{"Compound": "CC(=O)OC[C@H]1O[C@H](CC=NOC(C)CN2CCCCc3nc(C)c(C)cc32)C=C[C@@H]1OC(C)=O (some centres not stated)", "Test Value": -0.269}
{"Compound": "C=C(C)C(=O)OC[C@H]1CN2[C@@H](CC[C@@H](C)[C@@H]2c2ccc(Br)cc2)C(=O)O1", "Test Value": -1.77}
{"Compound": "CCOC(=O)[C@H](Cc1ccccc1)NC(=O)CCC1CC(OC(=O)NCCc2ccc(F)cc2)CC2(CCCC(COC(=O)NCc3cccc(C(F)(F)F)c3)O2)O1 (some centres not stated)", "Test Value": 0.0159}
{"Compound": "CC(C)=NO[C@@H](C)c1cn([C@H](CO)Cc2ccccc2)nn1", "Test Value": -1.77}
{"Compound": "CO[C@H]1COC(=O)CCC[C@H](C)[C@H](OC)COC(=O)CC=C[C@@H]1C", "Test Value": 0.757}
{"Compound": "CO[C@@H]1[C@H](O)CO[C@H]1C=Cc1ccccc1", "Test Value": 0.207}
{"Compound": "CCN1C(=O)[C@H]2[C@H]3[C@H](O)[C@H](O)CC(=NOC(C)CN4CCCc5nc(C)c(C)cc54)[C@@H]3CC[C@H]2C1=O (some centres not stated)", "Test Value": 0.583}
{"Compound": "COc1ccc(O[C@H]2C=C[C@@H](c3ccccc3)O[C@@H]2CO)cc1", "Test Value": -0.447}

Could you tell me z-score for each of these compounds? They are listed below.
1. COC(=O)[C@H](C)NC(=O)CCC1CC(OC(=O)NCCc2ccc(F)cc2)CC2(CCCC(COC(=O)NCCOc3ccccc3)O2)O1 (some centres not stated)
2. CO[C@H]1COC(=O)[C@H](C)COC(=O)[C@H](C)NC(=O)CC=C[C@H]1C
3. CCN1C(=O)[C@H]2[C@H]3[C@H](O)[C@H](O)CC(=NO[C@H](C)c4cn([C@@H]5COC[C@H]5O)nn4)[C@@H]3CC[C@H]2C1=O
4. C=CC[C@@H]1C=C[C@H](Oc2ccc(C)cc2)[C@@H](COC(=O)NCc2cccc3ccccc23)O1

Result:
1: -0.451; 2: -0.193; 3: -0.787; 4: -0.629

Could you tell me z-score for each of these compounds? They are listed below.
1. CCCCOC(OCCCC)C(O)CSc1ccc2ccccc2c1 (configuration not stated)
2. C[C@@H](c1ccccc1)N1C(=O)[C@H]2[C@H]3[C@H](O)[C@H](O)CC(=NOC[C@@H](O)COCc4ccco4)[C@H]3CC[C@H]2C1=O

Result:
1: 1.01; 2: -0.267

For reference, reported z-score for O=C1[C@H]2[C@H]3[C@H](O)[C@H](O)CC(=NOC[C@@H](O)COCc4ccco4)[C@@H]3CC[C@H]2C(=O)N1Cc1ccccc1 stands at 0.616

----------
Protocol Description: small-molecule microarray binders of probe aShh, primary screen, biochemical, biotinylated probe, 635/667 nm fluorescence (AID 1114);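 also: probe is biotin-labelled aShh protein from a stem cell growth factor screen; measures binding of labelled protein to compounds printed on the slide; score merges feature fluorescence at 667 nm with signal-to-noise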
Test Context: higher = more signal
For each of the compounds below, state its composite z-score.

{"Compound": "CCOC(=O)[C@H](Cc1ccccc1)NC(=O)CCC1CC(OC(=O)NCc2ccc3c(c2)OCO3)CC2(CCCC(COC(=O)NCCOC)O2)O1 (stereo partly drawn)", "Test Value": -0.153}
{"Compound": "C[C@H]1CC[C@H]2C(=O)O[C@H](CO)CN2[C@@H]1c1ccc(Br)cc1", "Test Value": -0.276}
{"Compound": "CC(C)(C)N1C(=O)[C@H]2[C@H]3[C@H](O)[C@H](O)CC(=NOC[C@@H](O)COCc4ccco4)[C@H]3CC[C@H]2C1=O", "Test Value": -0.0471}
{"Compound": "CCc1cc2c(nc1CC)CCN(CCC(C)=NOCC[C@@H]1C=C[C@H](OC(C)=O)[C@@H](COC(C)=O)O1)C2", "Test Value": -0.167}
{"Compound": "C[C@@H]1CC[C@H]2C(=O)O[C@@H](COc3ccc(C(C)(C)C)cc3)CN2[C@H]1c1ccc(Br)cc1", "Test Value": -0.214}
{"Compound": "C=CCOCC1CN2[C@@H](CC[C@@H](C)[C@@H]2c2ccc(Br)cc2)C(=O)O1 (stereo partly drawn)", "Test Value": -0.154}
{"Compound": "O=C1[C@H]2CCn3c(=O)n(-c4ccccc4)c(=O)n3[C@H]2[C@H](O)[C@@H]2O[C@H]12", "Test Value": -0.124}

Okay, next one:
For reference, reported composite z-score for COc1ccc(O[C@H]2C=C[C@@H](c3ccccc3)O[C@@H]2COC(=O)NCc2cccc3ccccc23)cc1 stands at 0.23

----------
Protocol Description: binders of probe aFGF2 on microarray, primary screen, stem cell growth factor project, biochemical, small-molecule microarray, fluorescence 635/667 (AID 1067);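 also: measures binding of biotinylated aFGF2 protein to printed compounds on slides; z-score merges feature fluorescence and signal-to-noise across triplicate slides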
Test Context: higher = more signal
For each of the compounds below, state its composite z-score.

{"Compound": "CCOC(=O)[C@H](Cc1ccccc1)NC(=O)CCC1CC(OC(=O)NCc2ccc3c(c2)OCO3)CC2(CCCC(COC(=O)NCCc3ccc(Cl)cc3)O2)O1 (some centres undefined)", "composite z-score": -0.114}

Could you tell me composite z-score for each of these compounds? They are listed below.
1. O=C1CCCC=C1C(O)COCc1ccccc1 (centres undefined)
2. CCN1C(=O)[C@H]2[C@H]3[C@H](O)[C@H](O)CC(=NNC(=O)OCc4ccccc4)[C@@H]3CC[C@H]2C1=O
3. CC(CCN1CCc2nc(-c3ccccc3)c(-c3ccccc3)cc2C1)=NO[C@@H](C)c1cc(-c2c(C)cc(C)cc2C)no1

Result:
1. -0.214
2. -0.153
3. -0.14

----------
Protocol Description: small-molecule microarray binders of probe aShh, primary screen, biochemical, biotinylated probe, 635/667 nm fluorescence (AID 1114);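 also: probe is biotin-labelled aShh protein from a stem cell growth factor screen; measures binding of labelled protein to compounds printed on the slide; score merges feature fluorescence at 667 nm with signal-to-noise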
Test Context: higher = more signal
Measure Name: composite z-score

Worked set:
{"Smiles Input": "O=C1[C@H]2[C@H]3[C@H](O)[C@H](O)CC(=NO[C@@H]4O[C@H](CO)[C@@H](O)[C@H](O)[C@H]4O)[C@H]3CC[C@H]2C(=O)N1C[C@@H]1CCCO1", "composite z-score": -0.117}
{"Smiles Input": "CC(C)CON=C1C[C@@H](O)[C@@H](O)[C@@H]2[C@@H]3C(=O)N(Cc4ccccc4)C(=O)[C@@H]3CC[C@H]12", "composite z-score": -0.324}
{"Smiles Input": "O=C1[C@H]2[C@H]3[C@H](O)[C@H](O)CC(=NO[C@@H]4O[C@H](CO)[C@@H](O)[C@H](O)[C@H]4O)[C@H]3CC[C@H]2C(=O)N1c1ccc(F)cc1F", "composite z-score": 0.178}
{"Smiles Input": "C#CCCCON=C1C[C@@H](O)[C@@H](O)[C@@H]2[C@@H]3C(=O)N(C[C@@H]4CCCO4)C(=O)[C@@H]3CC[C@@H]12", "composite z-score": -0.153}
{"Smiles Input": "COc1ccc(COC(=O)NN=C2C[C@@H](O)[C@@H](O)[C@@H]3[C@@H]4C(=O)N(Cc5ccc6c(c5)OCO6)C(=O)[C@@H]4CC[C@H]23)cc1", "composite z-score": 0.0121}
{"Smiles Input": "O=C1C2=CC[C@H]3C(=O)N(c4ccc(F)cc4F)C(=O)[C@H]3[C@H]2[C@H](O)[C@@H]2O[C@H]12", "composite z-score": -0.352}

For reference, reported composite z-score for CCCNC(=O)OC[C@H]1O[C@H](CCON=C[C@@H](C)[C@H](OCc2ccccc2)C(C)C)C=C[C@@H]1Oc1ccc(OC)cc1 stands at -0.484

----------
Protocol Description: COS7 lysate on small-molecule microarray, probe aHis, 635 nm (AID 1123);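 also: z-score combines 667nm fluorescence intensity with signal-to-noise per printed compound spot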
Test Context: COS7 cell lysate, fluorescence, higher = more signal
Cut-off 0.04 on composite z-score, inclusive. At or above means criterion met; below means criterion not met.

The following molecules have reported results that may help.
{"Molecule": "O=C1CCCC=C1C(O)c1ccc([N+](=O)[O-])cc1 (configuration not stated)", "Group": "criterion not met"}
{"Molecule": "Cc1ccc(C(C)C)n1C(=O)OC(C)(C)C", "Group": "criterion met"}
{"Molecule": "CCOC(=O)[C@H](CC(C)C)NC(=O)CCC1CC(OC(=O)NCCc2ccc(F)cc2)CC2(CCCC(COC(=O)NCc3cccc(C(F)(F)F)c3)O2)O1 (some centres not stated)", "Group": "criterion met"}

Query: Check this molecule for composite z-score at or above 0.04: C=CC[C@@H]1C=C[C@H](ON=C(C)CCN2CCCc3nc(C)c(C)cc32)[C@@H](CO)O1
Result: criterion met

Query: Check this molecule for composite z-score at or above 0.04: CO[C@@H]1COC(=O)CC=C[C@H](C)[C@H](OC)COC(=O)[C@@H]2CCCN2C(=O)CC=C[C@H]1C
Result: criterion not met

Query: Check this molecule for composite z-score at or above 0.04: CC(C)(C)N1C(=O)[C@H]2[C@H]3[C@H](O)[C@H](O)CC(=NNC(=O)OCc4ccccc4)[C@H]3CC[C@H]2C1=O
Result: criterion met

Query: Check this molecule for composite z-score at or above 0.04: CCN1C(=O)[C@H]2[C@H]3[C@H](O)[C@H](O)CC(=NO[C@@H](C)c4cc(-c5c(C)cc(C)cc5C)no4)[C@@H]3CC[C@H]2C1=O
Result: criterion met

Query: Check this molecule for composite z-score at or above 0.04: COC(=O)[C@H](C)NC(=O)CCC1CC(OC(=O)NCc2cccc3ccccc23)CC2(CCCC(COC(=O)NCc3cccc(C(F)(F)F)c3)O2)O1 (some centres not stated)
Result: criterion met

Query: Check this molecule for composite z-score at or above 0.04: CON=C1c2cc(OC)ccc2O[C@H](c2cccc(OC)c2)[C@H]1O
Result: criterion met

Query: Check this molecule for composite z-score at or above 0.04: COC(=O)[C@H](C)NC(=O)CCC1CC(OC(=O)NCc2ccc3c(c2)OCO3)CC2(CCCC(COC(=O)NCCc3ccc(Cl)cc3)O2)O1 (some centres not stated)
Result: criterion met

Query: Check this molecule for composite z-score at or above 0.04: C=CC[C@@H]1C=C[C@H](ON=C[C@@H](NS(=O)(=O)c2ccc(C)cc2)[C@H](C)C=CCC(=O)OC)[C@@H](CO)O1
Result: criterion not met

Query: Check this molecule for composite z-score at or above 0.04: COc1cccc([C@H](O)Cn2cc(-c3ccc(CON=C(C)C)cc3)nn2)c1
Result: criterion not met

Query: Check this molecule for composite z-score at or above 0.04: CO[C@@H]1COC(=O)[C@@H]2CCCN2C(=O)[C@@H](C)COC(=O)CCC[C@H]1C
Result: criterion not met
